measurementTarget: Kdn(a2-3)Gal(b1-3)GalNAc
experimentSummary: glycan array binding signal (z-score within array); higher = stronger binding
conditionInfo: glycan notation: IUPAC condensed, linker removed
This excerpt belongs to a sample that is enriched for the strongest signals.
Please go through the items and note down their glycan array binding signal (z-score).
Please reply with the number alone, leaving off any unit.

**Q:** Note glycan array binding signal (z-score) for the binder shown: Fm1D (Escherichia coli) (protein) FSCNVDGGSSIGAGTTSVYVNLDPVIQPGQNLVVDLSQHISCWNDYGGWYDTDHINLVQGSAFAGSLQSYKGSLYWNNVTYPFPLTTNTNVLDIGDKTPMPLPLKLYITPVGAAGGVVIKAGEVIARIHMYKIATLGSGNPRNFTWNIISNNSVVMPTHHHHHH
**A:** -0.14

**Q:** Note glycan array binding signal (z-score) for the binder shown: Vd2LysM (Verticillium dahliae) (protein) YRRTCSHTGKGEGWYIIRRGDNFNAVAADFCTSTNVLTEWNHISTITDNMVNTKIKVPCRWNAGKQRDCLKDQKSSNGWYHIVSGDELKDIAYDFCTTSGSLAGMNGISNPDYIKANTDIVVPCSWN
**A:** 1.25

**Q:** Note glycan array binding signal (z-score) for the binder shown: Epa1to9 (Candida glabrata) (protein) MGSSHHHHHHSSGLVPRGSHMTSSNDISLASKDPTTFPLGCSPDITTPKKGLSMELYSYDFRKKGSYPCWDAAYLDPNYPRTGYKSHRLLAKVDGVTGNINFYYHATKGCTPQLGHLPASYNYPKPLTMTNFTMLLYGYFRPKVTGFHTFTISADDLLFVNFGAGNAFDCCRRDSSADHFGNYQAYAIWGSKTAKDELTVHLDAGVYYPIRLFYNNRDYHGALSFTFKTESNENTVSDFSEYFFSLDDTEEGCPGLISYD
**A:** -0.38

Reference source for all entries: the supplement of paper PMC8728848
